All figures here come from paper PMC5119973.

Assignment: determine reported pKd for the given compounds.
Tested Target: RET^V804L (Homo sapiens, UniProt P07949, V804L)
Sequence (P07949 29-1114 V804L): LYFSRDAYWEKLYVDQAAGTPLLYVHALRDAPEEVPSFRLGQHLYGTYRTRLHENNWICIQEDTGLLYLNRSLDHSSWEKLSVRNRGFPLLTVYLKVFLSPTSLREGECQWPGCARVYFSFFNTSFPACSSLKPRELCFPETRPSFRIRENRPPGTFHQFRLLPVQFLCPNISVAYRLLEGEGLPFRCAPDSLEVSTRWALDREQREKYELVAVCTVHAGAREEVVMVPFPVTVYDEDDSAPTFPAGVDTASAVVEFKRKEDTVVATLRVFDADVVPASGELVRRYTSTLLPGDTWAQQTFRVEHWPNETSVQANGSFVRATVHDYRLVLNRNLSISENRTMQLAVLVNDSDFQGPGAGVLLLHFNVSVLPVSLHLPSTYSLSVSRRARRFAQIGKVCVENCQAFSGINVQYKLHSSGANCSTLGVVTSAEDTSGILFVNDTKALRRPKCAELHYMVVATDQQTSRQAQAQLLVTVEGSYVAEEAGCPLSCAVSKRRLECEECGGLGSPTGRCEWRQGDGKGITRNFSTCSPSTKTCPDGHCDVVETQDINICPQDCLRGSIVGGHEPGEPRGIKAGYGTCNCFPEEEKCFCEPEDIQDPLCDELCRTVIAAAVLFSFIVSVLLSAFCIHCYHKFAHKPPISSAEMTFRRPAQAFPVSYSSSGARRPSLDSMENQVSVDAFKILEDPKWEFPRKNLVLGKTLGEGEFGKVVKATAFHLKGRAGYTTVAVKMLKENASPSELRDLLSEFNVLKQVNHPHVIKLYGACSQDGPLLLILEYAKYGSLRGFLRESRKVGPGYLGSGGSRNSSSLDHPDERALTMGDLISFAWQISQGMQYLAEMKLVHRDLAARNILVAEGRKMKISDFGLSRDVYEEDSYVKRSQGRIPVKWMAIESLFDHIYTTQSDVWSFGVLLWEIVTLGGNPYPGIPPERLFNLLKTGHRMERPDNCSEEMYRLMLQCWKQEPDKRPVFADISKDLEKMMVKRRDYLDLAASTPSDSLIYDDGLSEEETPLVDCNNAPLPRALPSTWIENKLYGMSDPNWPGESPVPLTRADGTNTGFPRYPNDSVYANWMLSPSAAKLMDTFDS
Assay Explanation: KINOMEscan active-site competitive binding assay
Kindly note that pKd refers to -log10 of the concentration in mol/L and answer with the value alone.

[ask] Supply measured pKd of "NC(=O)c1cc(Oc2ccc(NC(=O)Nc3ccc(Cl)c(C(F)(F)F)c3)c(F)c2)cc[n+]1[O-]" in your reply.
[reply] 7.82

[ask] Supply measured pKd of "CNC(=O)c1cc(Oc2ccc(NC(=O)Nc3ccc(Cl)c(C(F)(F)F)c3)c(F)c2)cc[n+]1[O-]" in your reply.
[reply] 7.89

---

Assay Explanation: Plasma pharmacokinetics in female NMRI Foxn1 nu/nu mice
Condition Notes: analyte in plasma after M‐5 10 mg/kg/day oral for 5 days
Method: Analyte concentrations were measured by high‐performance liquid chromatography using a Hewlett Packard 1100 Series system (Palo Alto, CA), with tandem mass spectrometric detection using an Applied Biosystems API 4000 (Thermo Fisher Scientific, Waltham, MA). The assay was validated according to the applicable guideline on method validation 11. The lower limit of quantitation for the assay was 2.00 μg/L, with a linear range of 2.00–20,000 μg/L using a sample volume of 100 μL. […]
Result Type: Cmax (µM)
The figure you give is taken to be in µM; do not add the unit.

[ask] Supply measured Cmax of NC(=O)c1cc(Oc2ccc(NC(=O)Nc3ccc(Cl)c(C(F)(F)F)c3)c(F)c2)cc[n+]1[O-] [M‐5] in your reply.
[reply] 10.9

---

Assignment: determine reported Kd for the given compounds.
Tested Target: RAF1 (Homo sapiens)
Construct: purchased DiscoveRx
Sequence (P04049 whole entry): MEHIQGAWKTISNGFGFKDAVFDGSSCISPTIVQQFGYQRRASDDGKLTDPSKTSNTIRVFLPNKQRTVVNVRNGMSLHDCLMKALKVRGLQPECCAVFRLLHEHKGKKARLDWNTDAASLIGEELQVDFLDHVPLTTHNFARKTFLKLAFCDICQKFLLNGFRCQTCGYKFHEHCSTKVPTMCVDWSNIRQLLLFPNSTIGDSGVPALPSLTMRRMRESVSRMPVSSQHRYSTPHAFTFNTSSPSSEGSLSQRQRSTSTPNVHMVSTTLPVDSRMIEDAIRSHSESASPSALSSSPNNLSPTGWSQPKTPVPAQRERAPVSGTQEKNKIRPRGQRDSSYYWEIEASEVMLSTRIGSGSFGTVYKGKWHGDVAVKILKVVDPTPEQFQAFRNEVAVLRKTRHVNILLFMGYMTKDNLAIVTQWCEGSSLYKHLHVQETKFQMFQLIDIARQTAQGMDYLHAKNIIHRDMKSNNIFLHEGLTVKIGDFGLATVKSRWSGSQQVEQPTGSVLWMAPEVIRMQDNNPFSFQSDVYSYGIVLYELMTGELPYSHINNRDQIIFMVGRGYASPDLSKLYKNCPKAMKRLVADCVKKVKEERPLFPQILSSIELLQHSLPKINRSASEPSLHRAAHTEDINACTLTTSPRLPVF
Assay Explanation: KINOMEscan active-site competitive binding assay
Condition Notes: slash = two separate measurements
The figure you give is taken to be in nM; do not add the unit.

[ask] Check RAF1 (Homo sapiens) data and give Kd for NC(=O)c1cc(Oc2ccc(NC(=O)Nc3ccc(Cl)c(C(F)(F)F)c3)c(F)c2)cc[n+]1[O-] [M‐5] .
[reply] 66

[ask] Check RAF1 (Homo sapiens) data and give Kd for CNC(=O)c1cc(Oc2ccc(NC(=O)Nc3ccc(Cl)c(C(F)(F)F)c3)c(F)c2)cc[n+]1[O-] [M‐2] .
[reply] 130

---

Tested Target: EPHA6 (Homo sapiens, UniProt Q9UF33)
Assay Explanation: KINOMEscan active-site competitive binding assay
Condition Notes: slash = two separate measurements
Assignment: determine reported pKd for the given compounds.
Kindly note that pKd refers to -log10 of the concentration in mol/L and answer with the value alone.

[ask] Check EPHA6 (Homo sapiens, UniProt Q9UF33) data and give pKd for CNC(=O)c1cc(Oc2ccc(NC(=O)Nc3ccc(Cl)c(C(F)(F)F)c3)c(F)c2)cc[n+]1[O-] [M‐2] .
[reply] 6.68

[ask] Check EPHA6 (Homo sapiens, UniProt Q9UF33) data and give pKd for NC(=O)c1cc(Oc2ccc(NC(=O)Nc3ccc(Cl)c(C(F)(F)F)c3)c(F)c2)cc[n+]1[O-] [M‐5] .
[reply] 6.19

---

Tested Target: TNIK (Homo sapiens, UniProt Q9UKE5)
Construct: purchased DiscoveRx
Assay Explanation: KINOMEscan active-site competitive binding assay
Condition Notes: slash = two separate measurements
Assignment: determine reported Kd for the given compounds.
The figure you give is taken to be in µM; do not add the unit.

[ask] Supply measured Kd of "CNC(=O)c1cc(Oc2ccc(NC(=O)Nc3ccc(Cl)c(C(F)(F)F)c3)c(F)c2)cc[n+]1[O-]" in your reply.
[reply] 0.041

[ask] Supply measured Kd of "NC(=O)c1cc(Oc2ccc(NC(=O)Nc3ccc(Cl)c(C(F)(F)F)c3)c(F)c2)cc[n+]1[O-]" in your reply.
[reply] 0.12

---

Assignment: determine reported IC50 for the given compounds.
Tested Target: PDGFRα (Homo sapiens, UniProt P16234)
Assay Explanation: PDGFRA phosphorylation assay, PathHunter cell line U2OS/PDGFRA
Condition Notes: U2OS/PDGFRA cells; 0.1% bovine serum albumin; read-out: Mean ± SD IC50
Note to self: number, then unit, no commentary.

[ask] Supply measured IC50 of "CNC(=O)c1cc(Oc2ccc(NC(=O)Nc3ccc(Cl)c(C(F)(F)F)c3)c(F)c2)cc[n+]1[O-]" in your reply.
[reply] 44 nM

[ask] Supply measured IC50 of "NC(=O)c1cc(Oc2ccc(NC(=O)Nc3ccc(Cl)c(C(F)(F)F)c3)c(F)c2)cc[n+]1[O-]" in your reply.
[reply] 61 nM

---

Tested Target: KIT^D816V (Homo sapiens, UniProt P10721, D816V)
Sequence (P10721 26-976 D816V): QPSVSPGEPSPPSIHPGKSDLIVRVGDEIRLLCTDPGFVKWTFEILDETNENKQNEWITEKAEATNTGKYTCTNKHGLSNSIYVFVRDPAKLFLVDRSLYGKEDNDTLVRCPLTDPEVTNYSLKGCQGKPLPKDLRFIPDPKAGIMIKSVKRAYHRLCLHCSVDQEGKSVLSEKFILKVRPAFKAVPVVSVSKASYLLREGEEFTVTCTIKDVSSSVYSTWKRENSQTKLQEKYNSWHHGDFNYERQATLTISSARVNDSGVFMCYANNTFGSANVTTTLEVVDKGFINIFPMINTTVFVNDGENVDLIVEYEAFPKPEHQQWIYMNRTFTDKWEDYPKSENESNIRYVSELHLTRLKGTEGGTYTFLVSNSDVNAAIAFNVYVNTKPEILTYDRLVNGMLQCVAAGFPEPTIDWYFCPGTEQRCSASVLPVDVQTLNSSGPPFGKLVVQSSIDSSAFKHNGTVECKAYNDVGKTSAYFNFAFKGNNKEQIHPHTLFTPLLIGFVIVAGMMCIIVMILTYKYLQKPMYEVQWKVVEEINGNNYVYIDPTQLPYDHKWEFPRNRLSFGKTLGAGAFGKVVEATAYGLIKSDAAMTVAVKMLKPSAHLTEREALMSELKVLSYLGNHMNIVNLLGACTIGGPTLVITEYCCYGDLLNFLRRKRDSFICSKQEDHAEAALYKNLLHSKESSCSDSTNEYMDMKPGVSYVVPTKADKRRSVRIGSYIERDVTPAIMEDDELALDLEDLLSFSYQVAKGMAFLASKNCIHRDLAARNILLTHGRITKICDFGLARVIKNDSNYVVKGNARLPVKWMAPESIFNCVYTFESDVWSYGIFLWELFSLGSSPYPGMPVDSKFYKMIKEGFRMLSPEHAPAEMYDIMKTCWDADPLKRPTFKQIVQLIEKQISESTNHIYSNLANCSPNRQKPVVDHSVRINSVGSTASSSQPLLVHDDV
Assay Explanation: KINOMEscan active-site competitive binding assay
Result Type: pKd
Kindly note that pKd refers to -log10 of the concentration in mol/L and answer with the value alone.

[ask] Supply measured pKd of "CNC(=O)c1cc(Oc2ccc(NC(=O)Nc3ccc(Cl)c(C(F)(F)F)c3)c(F)c2)cc[n+]1[O-]" in your reply.
[reply] 6.52

[ask] Supply measured pKd of "NC(=O)c1cc(Oc2ccc(NC(=O)Nc3ccc(Cl)c(C(F)(F)F)c3)c(F)c2)cc[n+]1[O-]" in your reply.
[reply] 6.51

---

Assignment: determine reported pKd for the given molecules.
Tested Target: TRKC (Homo sapiens)
Sequence (Q16288 32-839): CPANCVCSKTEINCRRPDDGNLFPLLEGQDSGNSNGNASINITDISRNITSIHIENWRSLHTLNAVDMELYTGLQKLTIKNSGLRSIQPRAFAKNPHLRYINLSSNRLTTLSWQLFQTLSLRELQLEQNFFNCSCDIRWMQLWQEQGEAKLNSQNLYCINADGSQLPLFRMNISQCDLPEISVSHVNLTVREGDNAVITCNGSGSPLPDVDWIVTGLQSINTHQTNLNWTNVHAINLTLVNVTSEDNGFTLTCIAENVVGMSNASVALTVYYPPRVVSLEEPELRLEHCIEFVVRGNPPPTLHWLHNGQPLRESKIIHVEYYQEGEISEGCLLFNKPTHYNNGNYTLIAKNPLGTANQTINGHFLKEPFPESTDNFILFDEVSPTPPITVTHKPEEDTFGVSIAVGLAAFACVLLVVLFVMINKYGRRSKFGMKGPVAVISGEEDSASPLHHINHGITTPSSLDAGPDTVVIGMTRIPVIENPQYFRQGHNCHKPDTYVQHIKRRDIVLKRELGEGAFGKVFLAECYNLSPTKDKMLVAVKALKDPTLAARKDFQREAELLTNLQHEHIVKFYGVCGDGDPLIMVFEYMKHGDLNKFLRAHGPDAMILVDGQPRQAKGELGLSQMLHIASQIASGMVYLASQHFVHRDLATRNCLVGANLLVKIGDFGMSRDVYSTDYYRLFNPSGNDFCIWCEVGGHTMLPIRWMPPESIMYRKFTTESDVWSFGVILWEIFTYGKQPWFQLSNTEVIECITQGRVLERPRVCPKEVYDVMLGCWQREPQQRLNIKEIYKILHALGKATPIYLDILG
Assay Explanation: KINOMEscan active-site competitive binding assay
Condition Notes: slash = two separate measurements
Kindly note that pKd refers to -log10 of the concentration in mol/L and answer with the value alone.

[ask] Check TRKC (Homo sapiens) data and give pKd for "NC(=O)c1cc(Oc2ccc(NC(=O)Nc3ccc(Cl)c(C(F)(F)F)c3)c(F)c2)cc[n+]1[O-]" .
[reply] 7.25

[ask] Check TRKC (Homo sapiens) data and give pKd for "CNC(=O)c1cc(Oc2ccc(NC(=O)Nc3ccc(Cl)c(C(F)(F)F)c3)c(F)c2)cc[n+]1[O-]" .
[reply] 7.82

---

Tested Target: FGFR2 (Homo sapiens)
Construct: FGFR2, but not FGFR1, is overexpressed in the SNU‐16 cell line; endogenous in cells
Sequence (P21802 22-822 isoform P21802-3 limits assumed): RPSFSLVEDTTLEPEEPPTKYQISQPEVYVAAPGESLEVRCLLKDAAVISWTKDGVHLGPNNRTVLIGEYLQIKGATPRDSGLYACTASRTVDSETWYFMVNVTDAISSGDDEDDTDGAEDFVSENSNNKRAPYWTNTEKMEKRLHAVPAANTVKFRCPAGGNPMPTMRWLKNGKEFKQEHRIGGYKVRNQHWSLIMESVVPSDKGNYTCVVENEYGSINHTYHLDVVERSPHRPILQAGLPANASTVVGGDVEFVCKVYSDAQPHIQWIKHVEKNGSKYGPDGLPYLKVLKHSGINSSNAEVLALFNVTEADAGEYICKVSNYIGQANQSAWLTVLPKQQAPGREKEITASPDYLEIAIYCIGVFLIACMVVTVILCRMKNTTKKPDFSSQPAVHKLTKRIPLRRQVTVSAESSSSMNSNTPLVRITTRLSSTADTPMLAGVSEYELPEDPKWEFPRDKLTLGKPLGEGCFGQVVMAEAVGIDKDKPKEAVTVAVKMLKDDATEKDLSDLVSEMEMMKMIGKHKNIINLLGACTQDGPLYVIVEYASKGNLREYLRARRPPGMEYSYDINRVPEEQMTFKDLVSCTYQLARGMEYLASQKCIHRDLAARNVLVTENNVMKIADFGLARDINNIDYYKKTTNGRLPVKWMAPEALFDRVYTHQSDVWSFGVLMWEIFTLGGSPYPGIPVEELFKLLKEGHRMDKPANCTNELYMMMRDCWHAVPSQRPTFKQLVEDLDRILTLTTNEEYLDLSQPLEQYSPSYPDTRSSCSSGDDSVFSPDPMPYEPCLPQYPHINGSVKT
Assay Explanation: FGFR phosphorylation assay in SNU‐16 cells (western blot)
Condition Notes: SNU‐16/FGFR2 cells, 0.1% bovine serum albumin, read-out: Mean ± SD IC50
Result Type: IC50

[ask] Supply measured IC50 of "NC(=O)c1cc(Oc2ccc(NC(=O)Nc3ccc(Cl)c(C(F)(F)F)c3)c(F)c2)cc[n+]1[O-]" in your reply.
[reply] ~1000 nM

[ask] Supply measured IC50 of "CNC(=O)c1cc(Oc2ccc(NC(=O)Nc3ccc(Cl)c(C(F)(F)F)c3)c(F)c2)cc[n+]1[O-]" in your reply.
[reply] ~200 nM

---

Tested Target: EPHA8 (Homo sapiens, UniProt P29322)
Sequence (P29322 28-1005): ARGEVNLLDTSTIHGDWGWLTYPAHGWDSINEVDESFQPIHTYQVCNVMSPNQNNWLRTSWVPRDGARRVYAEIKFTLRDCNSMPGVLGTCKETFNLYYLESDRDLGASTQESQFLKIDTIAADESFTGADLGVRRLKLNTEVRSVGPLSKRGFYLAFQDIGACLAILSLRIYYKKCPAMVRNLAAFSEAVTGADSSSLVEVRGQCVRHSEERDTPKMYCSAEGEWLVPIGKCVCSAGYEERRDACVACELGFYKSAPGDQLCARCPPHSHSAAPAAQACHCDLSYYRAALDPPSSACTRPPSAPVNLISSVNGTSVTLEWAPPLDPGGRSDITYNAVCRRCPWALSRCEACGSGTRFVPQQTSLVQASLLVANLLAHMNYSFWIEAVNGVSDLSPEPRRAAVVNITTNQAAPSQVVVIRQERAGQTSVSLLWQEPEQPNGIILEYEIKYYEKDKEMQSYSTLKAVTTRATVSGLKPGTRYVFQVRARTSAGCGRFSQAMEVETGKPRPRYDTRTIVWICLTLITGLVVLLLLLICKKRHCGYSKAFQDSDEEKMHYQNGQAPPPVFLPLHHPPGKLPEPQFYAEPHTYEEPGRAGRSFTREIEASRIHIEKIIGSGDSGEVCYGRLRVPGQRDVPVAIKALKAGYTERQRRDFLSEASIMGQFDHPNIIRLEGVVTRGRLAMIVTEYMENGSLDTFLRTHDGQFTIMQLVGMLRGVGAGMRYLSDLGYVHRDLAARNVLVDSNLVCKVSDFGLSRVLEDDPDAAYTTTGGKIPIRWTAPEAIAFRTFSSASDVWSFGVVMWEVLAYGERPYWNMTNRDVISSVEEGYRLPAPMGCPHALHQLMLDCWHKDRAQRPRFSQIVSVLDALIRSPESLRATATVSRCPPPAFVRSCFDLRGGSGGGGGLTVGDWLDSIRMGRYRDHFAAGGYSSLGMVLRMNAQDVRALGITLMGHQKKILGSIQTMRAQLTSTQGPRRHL
Assay Explanation: KINOMEscan active-site competitive binding assay
Condition Notes: slash = two separate measurements
Result Type: pKd
Kindly note that pKd refers to -log10 of the concentration in mol/L and answer with the value alone.

[ask] Supply measured pKd of CNC(=O)c1cc(Oc2ccc(NC(=O)Nc3ccc(Cl)c(C(F)(F)F)c3)c(F)c2)cc[n+]1[O-] [M‐2] in your reply.
[reply] 7.21

[ask] Supply measured pKd of NC(=O)c1cc(Oc2ccc(NC(=O)Nc3ccc(Cl)c(C(F)(F)F)c3)c(F)c2)cc[n+]1[O-] [M‐5] in your reply.
[reply] 7.14
